- Tested on: CCRIS mutagenicity, Ames/micronucleus/aberration tests
- TEST_METHOD_NOTES: CCRIS mutagenicity studies
- MEASUREMENT_SETUP: Test System: MOUSE LYMPHOMA; Strain/Indicator: L5178Y (TK+/TK-); Metabolic Activation: RAT, LIVER, S-9, AROCLOR 1254; Method: SUSPENSION/PLATE
Activity calls are given as the source filed them. How the calls were made is not given here.
Outcomes: t = active, f = inactive

1) COc1ccc2nc(N)sc2c1 = t
2) COc1ccc(N)cc1N = t
3) CC(=O)CC(=O)CCC(=O)O = t
4) CCCCC(CC)COS(=O)(=O)O (stereo not given) = f
5) [O]=[Zr] = f
6) O=C(/C=C/c1ccc(O)c(O)c1)O[C@@H]1C[C@](O)(C(=O)O)C[C@@H](O)[C@H]1O = t
7) CCN(CC[N+](C)(C)C)c1ccc(N=Nc2ccc([N+](=O)[O-])cc2Cl)cc1 = t
8) CC/C(C)=N\O = f
9) Nc1ccc(S(=O)(=O)Nc2cnc3c(Cl)cccc3n2)cc1 = f
10) N=C1C=CC(=C(c2ccc(N)cc2)c2ccc(N)cc2)C=C1 = t
11) OC[C@H]1O[C@@H](n2cnc3c(NC[C@H](O)COc4cccc5ccccc45)ncnc32)[C@H](O)[C@@H]1O = t
12) O=c1[nH]cnc2[nH]ncc12 = f
13) Nc1nc(N)c(-c2ccccc2)s1 = t
14) O=c1c(O)c(O)c1=O = f
15) Cc1ccc(O)c(N)c1 = t
16) CC(O)CN1CC(C)OC1=O (stereo not given) = t
17) O.O.O.O=C([O-])[C@H]([O-])[C@@H]([O-])C(=O)[O-].O=C([O-])[C@H]([O-])[C@@H]([O-])C(=O)[O-].[K+].[K+].[Sb+3].[Sb+3] = t
18) C/C=C(\C)C=O = f
19) O=C1CCO1 = t
20) COc1ccc(C(=O)c2ccccc2)c(O)c1 = t
21) Nc1ncn([C@@H]2O[C@H](CO)[C@@H](O)[C@H]2O)c(=O)n1 = t
22) C=CC(=O)OCC = t
23) CNC(=O)NC = f
24) O=C(O)CN(CC(=O)O)CC(=O)O = f
25) CC=O = t
26) CCCCOC(=O)c1ccccc1C(=O)OCc1ccccc1 = f
27) O=P(O)(O)OC1C(OP(=O)(O)O)C(OP(=O)(O)O)C(OP(=O)(O)O)C(OP(=O)(O)O)C1OP(=O)(O)O (stereo not given) = f
28) C1COCCO1 = f
29) Cc1cccc(O)c1N = t
30) Cl = t

====

- Test system: CCRIS mutagenicity, Ames/micronucleus/aberration tests
- TEST_METHOD_NOTES: CCRIS mutagenicity studies
- MEASUREMENT_SETUP: Test System: AMES SALMONELLA TYPHIMURIUM; Strain/Indicator: TA1535; Metabolic Activation: HAMSTER, LIVER, S-9, AROCLOR 1254 (10%); Method: PREINCUBATION
Calls of active or inactive are those of the source. How the calls were made is not given here.
Outcomes: active, inactive

1. Oc1c(Cl)ccc(Cl)c1Cl = inactive
2. C=C(Cl)CCl = active
3. CC(=O)Nc1ccc(O)cc1 = inactive
4. CNC[C@H](O)c1ccc(O)c(O)c1 = inactive
5. CC(C)=CCC/C(C)=C/C=O = inactive
6. CN(C)CCN(Cc1ccsc1)c1ccccn1 = inactive
7. CCCCCCCCC/C=C/CC1CC(=O)OC1=O (stereo not given) = inactive
8. ClC(Cl)(Cl)CC1CO1 (stereo not given) = inactive
9. C=C(C)C(=O)OCC(C)C = inactive
10. C(CCOCC1CO1)COCC1CO1 (stereo not given) = active
11. CCCCCCCCCCCC(=O)N(CCO)CCO = inactive
12. ClC1=C(Cl)[C@]2(Cl)[C@@H]3[C@H]4C[C@H]([C@@H]5O[C@H]45)[C@@H]3[C@@]1(Cl)C2(Cl)Cl = inactive
13. CCCCC(CC)CN (stereo not given) = inactive
14. CC(O)CBr (stereo not given) = active
15. Cl/C=C\Cl = inactive
16. C=CCc1ccc(OC)cc1 = inactive
17. C=CCN(CC=C)CC=C = inactive
18. OCCO = inactive
19. CCCCCCCCOc1ccc(C(=O)O)cc1 = inactive
20. CC(C)CON=O = active
21. COc1ccc(C(=O)c2ccccc2O)c(O)c1 = inactive
22. O=C(O)c1ccccc1[N+](=O)[O-] = inactive
23. [O]=[Zr] = inactive
24. Cc1ccc(S(=O)(=O)NC(=O)NN2CCCCCC2)cc1 = inactive
25. CC(=O)O = inactive
26. Cc1ccccc1N = inactive
27. C=C(C)C(=O)OC(C)C = inactive
28. CCCCN(CCO)CCCC = inactive
29. CCNCC = inactive
30. CC(=O)Nc1cccc(N)c1 = inactive
31. Oc1ccc(Nc2ccc3ccccc3c2)cc1 = inactive
32. c1ccc(P(c2ccccc2)c2ccccc2)cc1 = inactive
33. CC(C)(C)OOC(=O)c1ccccc1 = inactive
34. CCCCOC(=O)c1ccccc1C(=O)OCc1ccccc1 = inactive
35. Cc1ccc(CO)cc1 = inactive

====

- System: CCRIS mutagenicity, Ames/micronucleus/aberration tests
- TEST_METHOD_NOTES: CCRIS mutagenicity studies
- MEASUREMENT_SETUP: Test System: Ames Salmonella typhimurium; Strain/Indicator: TA100; Metabolic Activation: None; Method: Preincubation
Active and inactive are the calls of the source. The rule behind the calls is not given here.
MEASURED_METRIC: mutagenic call

1) O=C([O-])c1ccccn1.O=C([O-])c1ccccn1.O=C([O-])c1ccccn1.[Cr+3] = inactive; negative
2) C=COC(C)=O = inactive; negative
3) Nc1ccc(O)c2c1C(O)=CC(=O)C2=O = inactive; negative

====

- System: CCRIS mutagenicity, Ames/micronucleus/aberration tests
- TEST_METHOD_NOTES: CCRIS mutagenicity studies
- MEASUREMENT_SETUP: Test System: AMES SALMONELLA TYPHIMURIUM; Strain/Indicator: TA1537; Metabolic Activation: RAT, LIVER, S-9, PHENOBARBITAL; Method: STANDARD PLATE
- Text: The CCRIS database contains chemical records with carcinogenicity, mutagenicity, tumor promotion, and tumor inhibition test results. It was developed by the National Cancer Institute (NCI). Data are derived from studies cited in primary journals, current awareness tools, NCI reports, and other sources. Test results have been reviewed by experts in carcinogenesis and mutagenesis. CCRIS provides historical information from the years 1985 - 2011. It is no longer updated. […]
The source made the active and inactive calls. The rule behind the calls is not given here.
Outcomes: active, inactive

1) [Co] = inactive
2) Cc1c2ccncc2c(C)c2c1[nH]c1ccc(N)cc12 = active
3) CC(=O)Nc1ccc2[nH]c3ccccc3c2c1 = inactive
4) Nc1cc2c(cc1[N+](=O)[O-])[nH]c1ccccc12 = active
5) O=C1[C@H]2CC=CC[C@H]2C(=O)N1SC(Cl)(Cl)Cl = active
6) [Zn] = inactive
7) O=[N+]([O-])c1cccc2[nH]c3ccccc3c12 = inactive
8) [Cr] = inactive
9) Cl = inactive
10) c1ccc2c(c1)ccc1nc3ccc4ccccc4c3cc12 = active
11) C[n+]1ccccc1-c1cccc[n+]1C = inactive

====

- Tested on: CCRIS mutagenicity, Ames/micronucleus/aberration tests
- TEST_METHOD_NOTES: CCRIS mutagenicity studies
- MEASUREMENT_SETUP: Test System: AMES SALMONELLA TYPHIMURIUM; Strain/Indicator: TA1977; Metabolic Activation: NONE; Method: PREINCUBATION
Activity calls are given as the source filed them. No rule for the calls is given here.
MEASURED_METRIC: mutagenic call

1) Nc1ccc2nc3ccccc3c(N)c2c1 = active; positive
2) Nc1cccc2nc3ccccc3cc12 = active; positive
3) C[n+]1c2ccccc2cc2c(N)cccc21 = active; positive
4) Nc1ccc2cc3ccccc3nc2c1 = active; positive

====

- Tested on: CCRIS mutagenicity, Ames/micronucleus/aberration tests
- TEST_METHOD_NOTES: CCRIS mutagenicity studies
- MEASUREMENT_SETUP: End Point: IN VITRO CHROMOSOMAL ABERRATIONS; Test System: CHO-LB CELLS; Metabolic Activation: NONE
Calls of active or inactive are those of the source. The rule behind the calls is not given here.
MEASURED_METRIC: mutagenic call

1. CC(C)Oc1ccc(Nc2ccccc2)cc1 = inactive; negative
2. C=CC(=O)OCC = inactive; negative
3. C=C(Cl)CCl = active; positive
4. CS(C)=O = inactive; negative
5. Nc1c(Br)cc(Br)c2c1C(=O)c1ccccc1C2=O = inactive; negative
6. CCCCCCCCCCCC(=O)N(CCO)CCO = inactive; negative
7. CCCCC(CC)COS(=O)(=O)O (centres undefined) = inactive; negative
8. CN(C)C(=O)Nc1cccc(C(F)(F)F)c1 = inactive; negative
9. N#C/C=C/C#N = active; positive
